Target entity: Histone-lysine N-methyltransferase EHMT2 (Homo sapiens) (UniProt Q96KQ7)
Sequence (Q96KQ7 913-1193 limits assumed): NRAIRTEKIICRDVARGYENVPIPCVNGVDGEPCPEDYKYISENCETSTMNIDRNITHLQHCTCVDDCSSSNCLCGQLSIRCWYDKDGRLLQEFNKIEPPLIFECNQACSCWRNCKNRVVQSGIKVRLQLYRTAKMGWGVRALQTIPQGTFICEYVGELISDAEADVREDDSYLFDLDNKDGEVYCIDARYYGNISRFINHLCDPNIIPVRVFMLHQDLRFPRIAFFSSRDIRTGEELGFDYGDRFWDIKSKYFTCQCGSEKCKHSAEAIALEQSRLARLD
Assay name: qHTS Assay for Inhibitors of Histone Lysine Methyltransferase G9a; further: nearly all actives have a fitted effect of over 75% in size
Condition: G9a H3K9 monomethylation, AlphaScreen, 2 h; series mostly up to 59 µM
Experimental: Methylated lysines, on the N-terminal tails of histone proteins serve as epigenetic markers to recruit factors that can then modify local chromatin structure to lead to functional consequences. […] Methylation of biotinylated-histone peptide is measured through specific antibody-based detection, in conjunction with streptavidin-coated donor and anti-IgG antibody-coated acceptor beads. […]
The whole screen tested about 350,000 compounds, of which about 31,000 (8.9%) were called active. About 15% were inconclusive and are not listed. The call rests on the fitted dose curve; in most records, active means well fitted inhibition curve with a large enough effect; inconclusive means small, poorly fitted or top-dose-only effect; inactive means no such curve, though single readings can be large or run the other way. Only a selection was taken, and actives are over-represented in it overall.
# valid calls are t = active, f = inactive; nothing else

Cc1sc2nc(SCCO)n(-c3ccccc3)c(=O)c2c1C; f
NC(N)=N/N=C/c1ccc(OCc2ccc(Cl)cc2Cl)cc1; t
CCC(=O)N1CCc2cc(S(=O)(=O)NC(Cc3ccccc3)C(=O)NCc3ccc(C)cc3)ccc21 (stereo not given); f
Cc1nonc1C1CCCN1C(=O)c1cc(COc2cccc(C(F)(F)F)c2)on1 (stereo not given); f

Req: Hello, I am checking results. What call was entered for COc1cc(C(=O)N2CCN(C)CC2)cc(OC)c1OC ?
Resp: f

Req: Returns: the outcome recorded for CN(C(=O)CSc1nc2ccccc2n1Cc1ccccc1C#N)c1ccccc1 in this assay.
Resp: f

Req: Which result was noted for this compound in the test: CCN(CC)P(=O)(/C(Cl)=C\Nc1c(C)n(C)n(-c2ccccc2)c1=O)N(CC)CC
Resp: t

Req: Hi, sorry to bother you, what did the test record for Cc1c(NC(=S)Nc2ccccc2)c(=O)n(-c2ccccc2)n1C ?
Resp: f

Req: Which outcome was assigned to Cc1nn(C)c2c1c(C(F)(F)F)cc(=O)n2C(C)C(=O)NCc1ccc(Cl)cc1 (stereo not given) in this test?
Resp: f

Req: Please let me know the test result on file for CCN1CCN(CC(=O)c2cc(OC)c(OC)c(OC)c2)CC1 .
Resp: t

###

Target entity: Histone-lysine N-methyltransferase EHMT2 (Homo sapiens)
Assay name: qHTS Assay for Inhibitors of Histone Lysine Methyltransferase G9a; further: nearly all actives have a fitted effect of over 75% in size
Condition: G9a H3K9 monomethylation, AlphaScreen, 2 h; series mostly up to 59 µM
The whole screen tested about 350,000 compounds, of which about 31,000 (8.9%) were called active. Inconclusive results (about 15%) are left out. Calls follow the shape of the dose curve; as a rule, active = well fitted inhibition curve with a large enough effect; inconclusive = small, poorly fitted or top-dose-only effect; inactive = no such curve, though single readings can be large or run the other way. Only a selection was taken, and actives are over-represented in it overall.
Please answer using one outcome listed in active, inactive

Here are 5 compounds together with their reported answers.
C[C@@H](C(=O)Nc1ccc2ccccc2c1)[C@@H]1C[C@@]1(C)[C@@H](NC(=O)c1cccnc1)c1ccccc1; active
O=[N+]([O-])c1cc([N+](=O)[O-])c2cccnc2c1O; active
O=C1NC(c2ccncc2)Nc2sc3c(c21)CCCC3 (stereo not given); active
O=C(Nc1ccc(N2CCN(C(=O)c3ccccc3)CC2)c(Cl)c1)c1cccnc1; inactive
Fc1ccc(-c2nn(-c3ccccc3Cl)c3c2cnc2ccccc23)cc1; inactive

Req: Which outcome was entered for the compound CC(NC(=O)c1ccc(S(=O)(=O)Nc2ccccc2)cc1)c1ccc(S(N)(=O)=O)cc1 (stereo not given) in this test?
Resp: inactive

Req: In this assay, the call recorded for Cc1ccc(-n2c(=O)c3cccnc3n2CC(=O)NCc2ccc(F)cc2)cc1C was what?
Resp: inactive

Req: So what was the verdict on Cc1ccc(-c2nnc(SCc3ccccc3C)o2)cc1 in this test?
Resp: inactive

Req: Which outcome did this test record for the compound CC(=O)Nn1cc2c(=O)n(C)c(=O)n(C)c2c1 ?
Resp: active

Req: So what was the verdict on Cn1cc(CNC(=O)c2ccc(OC3CCN(Cc4ccccn4)CC3)cc2)cn1 in this test?
Resp: inactive

###

Target entity: Histone-lysine N-methyltransferase EHMT2 (Homo sapiens)
Assay name: qHTS Assay for Inhibitors of Histone Lysine Methyltransferase G9a; further: nearly all actives have a fitted effect of over 75% in size
Condition: G9a H3K9 monomethylation, AlphaScreen, 2 h; series mostly up to 59 µM
The whole screen tested about 350,000 compounds, of which about 31,000 (8.9%) were called active. Not shown: some 15% with an inconclusive outcome. Calls come from the whole dose curve; as a rule, active = well fitted inhibition curve with a large enough effect; inconclusive = small, poorly fitted or top-dose-only effect; inactive = no such curve, though single readings can be large or run the other way. For the sample, actives were picked, then their nearest neighbours and some compounds at random.
Use one of these outcomes when replying: active, inactive

Past entries and their recorded results:
COc1ccccc1NC(=O)CSc1nnc(C)n1CC1CCCO1 (stereo unspecified); inactive
Cc1ccc(CSCC(N)C(=O)O)cc1 (stereo unspecified); active
COc1ccc(NC(=O)C(c2ccccc2)N2Cc3ccccc3C2=O)cc1 (stereo unspecified); inactive

Req: # outcome recorded in this test, key = Cc1ccc(-c2cc(-c3coc4ccccc4c3=O)c3c(n2)-c2cc(Cl)ccc2OC3)cc1
Resp: inactive

Req: Called result for CC(=O)Nc1ccc(NC(=O)CSc2nnc(COc3ccccc3C)n2CC2CCCO2)cc1 (stereo unspecified)
Resp: inactive

Req: What is the recorded call for this molecule in the test? COc1ccccc1CNC(=O)NCc1noc2ccc(C)cc12
Resp: inactive

###

Target entity: Histone-lysine N-methyltransferase EHMT2 (Homo sapiens)
Assay name: qHTS Assay for Inhibitors of Histone Lysine Methyltransferase G9a; further: nearly all actives have a fitted effect of over 75% in size; further: potency means the concentration at half of the fitted maximal effect
Condition: G9a H3K9 monomethylation, AlphaScreen, 2 h; series mostly up to 59 µM
The whole screen tested about 350,000 compounds, of which about 31,000 (8.9%) were called active. About 15% were inconclusive and are not listed. The list comes from a sample in which actives are over-represented; it also holds close analogues and randomly drawn compounds.
Recorded endpoint: Potency

Cn1c(COc2ccccc2C(C)(C)C)nc2ccccc21; inactive
Oc1cccc(/C=N/Nc2ccc(Cl)nn2)c1O; inactive
CC(NCc1cccs1)C(=O)Nc1cc(Cl)cc(Cl)c1 (centres undefined); 5.01 µM (active)
O=S(=O)(N1CCOCC1)N1CCN(c2ccccc2F)CC1; inactive
COc1ccccc1CNC(=O)Cn1nc(C)c2nn(-c3ccc(Cl)cc3)c(C)c2c1=O; inactive

I need Potency for every entry listed below, if you could help.
1. CCOC(=O)CNC(=O)N1c2ccccc2Sc2ccccc21
2. Cc1ccc(C(=O)O)cc1-c1ccc(/C=C2\SC(=O)N(CC(=O)Nc3ccc4c(c3)OCO4)C2=O)o1

Resp:
["inactive", "15.8 µM (active)"]

For the 5 molecules below, give their Potency values.
1. O=C(NCCCN1CCCCCC1)c1ccc(N2CCCC2=O)cc1
2. O=C(Nc1cc2c3c(c1)C1CCCC1CN3CC1CCCC21)c1ccc([N+](=O)[O-])cc1 (centres undefined)
3. COC(=O)C1=C(C(=O)OC)C(c2cc([N+](=O)[O-])ccc2O)c2sc(=O)[nH]c2S1 (centres undefined)
4. CCn1c(CSCc2c(Cl)cccc2Cl)n[nH]c1=S
5. CCC1(CC)Cc2ccccc2-c2nc(CCl)[nH]c(=O)c21

Resp:
1: 22.4 µM (active); 2: 10 µM (active); 3: 44.7 µM (active); 4: 2.82 µM (active); 5: inactive

###

Target entity: Histone-lysine N-methyltransferase EHMT2 (Homo sapiens)
Assay name: qHTS Assay for Inhibitors of Histone Lysine Methyltransferase G9a; further: nearly all actives have a fitted effect of over 75% in size; on activity, negative = inhibition: on the % scale 0 is the no-effect control and ±100 the full control effect
Condition: G9a H3K9 monomethylation, AlphaScreen, 2 h; series mostly up to 59 µM
In all, about 350,000 compounds went through this assay and about 31,000 (8.9%) were called active. Another 15% or so got no clear call; they are omitted. The entries come from a sample that favours actives as a whole.
Give measured activity, negative = inhibition for each item. Keep answers brief.

Look at each compound and report its activity, negative = inhibition.
1. COc1ccc([C@H]2CC(=O)C=C(/C=C/c3ccccc3)C2)cc1
2. Cc1ccccc1Nc1nc(N)nc(CN2CCN(c3ccccn3)CC2)n1
3. O=C(NCCC1CCCCN1S(=O)(=O)c1ccc(Cl)cc1)C(=O)NCc1ccco1 (stereo unspecified)
4. CC(O)c1ccc(OCCN(C)c2ccccn2)cc1 (stereo unspecified)
5. CCc1ccc(Nc2n[n+](-c3ccccc3)c(-c3cccc(Cl)c3Cl)s2)cc1
6. COc1ccc(NC(=O)Cn2cc(C(=O)c3ccncc3)c(=O)c3cc(C)ccc32)cc1Cl

Resp:
-12.4% [at 2.33 µM] (inactive)
-45.5% [at 12.7 µM] (inactive)
-5.87% [at 0.501 µM] (inactive)
-1.26% [at 2.33 µM] (inactive)
10.7% [at 2.33 µM] (inactive)
3.8% [at 12.7 µM] (inactive)

###

Target entity: Histone-lysine N-methyltransferase EHMT2 (Homo sapiens) (UniProt Q96KQ7)
Assay name: qHTS Assay for Inhibitors of Histone Lysine Methyltransferase G9a; further: nearly all actives have a fitted effect of over 75% in size
Condition: G9a H3K9 monomethylation, AlphaScreen, 2 h; series mostly up to 59 µM
About 31,000 (8.9%) of roughly 350,000 compounds were called active. Inconclusive results (about 15%) are left out. Calls come from the whole dose curve; as a rule, active = well fitted inhibition curve with a large enough effect; inconclusive = small, poorly fitted or top-dose-only effect; inactive = no such curve, though single readings can be large or run the other way. Only a selection was taken, and actives are over-represented in it overall.
Respond with a class label; see active, inactive

Known results for molecules:
CCOc1ccc(S(=O)(=O)c2cn(Cc3ccccc3)c3ccc(OCC)cc3c2=O)cc1; inactive
Cc1cccc(-c2nc(CS(=O)CC(=O)NC(C)CCc3ccccc3)c(C)o2)c1 (stereo unspecified); inactive
COc1cc(/C=N/O)cc(Br)c1OS(=O)(=O)c1ccc(C)cc1; inactive
O=C(CSc1nc2nccnc2c(=O)n1Cc1cccs1)Nc1ccccc1F; inactive
CCCCn1c(N)c(N(CCOC)C(=O)CSCC(=O)Nc2cccc(C)c2)c(=O)[nH]c1=O; inactive
COc1ccc(-c2nc(CS(=O)CC(=O)N3CCc4ccccc4C3)c(C)o2)cc1 (stereo unspecified); active
CC(=O)Nc1ccc(NC(=O)c2ccc3c(c2)C(=O)N(c2ccccc2C)C3=O)cc1; active
Cc1ccc(-c2c3c(=O)n(C)c(=O)n(C)c3cn2-c2ccccc2O)cc1; active

Req: Record request — test call for CC(C)(C)c1ccc(CN2C(=O)c3ccccc3S2(=O)=O)cc1
Resp: inactive

Req: Please share the test call associated with COc1ccc(Nc2cc(=O)n(-c3ccccc3)c3c2c(=O)n(C)c(=O)n3C)cc1 .
Resp: inactive

Req: How was COc1ccc(-c2c3c(=O)n(C)c(=O)n(C)c3c3c(C)nc4ccccc4n23)cc1 classified in this test?
Resp: inactive

Req: Write down the call the test reported for this molecule. Item: CCOC(=O)C(C)n1cnc2c(nnn2-c2ccc(F)cc2)c1=O (stereo unspecified)
Resp: inactive

Req: // outcome(item) with item = COc1ccc(CNC(=O)CS(=O)Cc2nc(-c3cccc(C)c3)oc2C)cc1 (stereo unspecified)
Resp: inactive

Req: What outcome does the record of this test show for Cn1c(=N)n(CC(O)c2ccccc2)c2ccccc21 (stereo unspecified) ?
Resp: inactive

Req: Please share the test call associated with Cc1c(NC(=O)Nc2ccc(F)c(Cl)c2)c(=O)n(-c2ccccc2)n1C .
Resp: inactive

Req: Dear colleague, could you share the recorded outcome for O=C(Nc1ccc2c(c1)OCO2)c1ccc(N2C(=O)c3ccccc3C2=O)cc1 when you have a moment?
Resp: inactive

Req: Check the results log: what was the call for COc1cccc(-c2nc(CS(=O)CC(=O)NCc3ccc(F)cc3)c(C)o2)c1 (stereo unspecified) ?
Resp: inactive
